Target: Replicase polyprotein 1ab (Severe acute respiratory syndrome coronavirus 2)
Test: Inhibition of SARS-CoV-2 3CL-Pro proteolytic cleavage of a dual-labeled substrate by FRET at 1mM DTT.
Type: functional
Parameters: assay stage
Labels: active, inactive

# compound, measured target, group label
measured = [
    ("O=C(Nc1ccccc1)Nc1ccc(-c2ccc(C(=O)[C@@H]3CCC[C@H]3C(=O)O)cc2)cc1", "Replicase polyprotein 1ab (Severe acute respiratory syndrome coronavirus 2)", "inactive"),
    ("Nc1ccc(O)c2ncccc12", "Replicase polyprotein 1ab (Severe acute respiratory syndrome coronavirus 2)", "inactive"),
    ("COc1ccnc(C[S+]([O-])c2nc3cc(OC(F)F)ccc3[nH]2)c1OC (stereo unspecified)", "Replicase polyprotein 1ab (Severe acute respiratory syndrome coronavirus 2)", "inactive"),
    ("O=C1C(Cl)=C(Cl)C(=O)C(Cl)=C1Cl", "Replicase polyprotein 1ab (Severe acute respiratory syndrome coronavirus 2)", "active"),
    ("CCCCn1c(NC(=O)c2cccs2)c(C#N)c2nc3ccccc3nc21", "Replicase polyprotein 1ab (Severe acute respiratory syndrome coronavirus 2)", "inactive"),
    ("Sc1nnnn1-c1ccccc1", "Replicase polyprotein 1ab (Severe acute respiratory syndrome coronavirus 2)", "inactive"),
    ("COC(=O)CC[C@H](NC(=O)[C@H](CC(=O)OC)NC(=O)OCc1ccccc1)C(=O)N[C@H](C(=O)N[C@@H](CC(=O)OC)C(=O)CF)C(C)C", "Replicase polyprotein 1ab (Severe acute respiratory syndrome coronavirus 2)", "active"),
    ("Nc1nc(S)c2ncn(C3OC(CO)C(O)C3O)c2n1 (stereo unspecified)", "Replicase polyprotein 1ab (Severe acute respiratory syndrome coronavirus 2)", "active"),
    ("S=C=Nc1cccc(NC(=S)NCCCCNC(=S)Nc2cccc(N=C=S)c2)c1", "Replicase polyprotein 1ab (Severe acute respiratory syndrome coronavirus 2)", "inactive"),
    ("CCOC(=O)c1c(N)sc(-c2ccccc2)c1C", "Replicase polyprotein 1ab (Severe acute respiratory syndrome coronavirus 2)", "active"),
    ("O=c1c(O)cccc2cc(O)c(O)c(O)c12", "Replicase polyprotein 1ab (Severe acute respiratory syndrome coronavirus 2)", "inactive"),
]

* * *

Target: Replicase polyprotein 1ab (Severe acute respiratory syndrome coronavirus 2)
Experiment: Inhibition of SARS-CoV-2 3CL-Pro proteolytic cleavage of a dual-labeled substrate by FRET at 1mM DTT.
Assay type: functional
Set-up: assay stage
Outcome codes: active, inactive

# molecule, group label
data = [
    ("Cc1cc(-c2ccc(/C=C3/S/C(=N\\c4ccc(Cl)c(C(=O)O)c4)NC3=O)o2)c([N+](=O)[O-])cc1C", "inactive"),
    ("S=C=NCc1ccccc1", "inactive"),
    ("Cc1ccc(C)c(-n2sc3cc(F)ccc3c2=O)c1", "active"),
    ("Oc1cc2c(cc1C(c1ccc(C(F)(F)F)cc1)N1CCOCC1)OCO2 (configuration not stated)", "inactive"),
    ("CCN(CC)C(=S)S", "inactive"),
    ("O=C(CC1Sc2ncnn2C1=O)Nc1ccc(Br)cc1 (configuration not stated)", "inactive"),
    ("COc1ccc2[nH]c3c(S)ncnc3c2c1", "inactive"),
    ("CC(C)(C)OC(=O)NCCc1nnc(S(=O)(=O)Cc2ccc(Cl)cc2Cl)o1", "inactive"),
    ("CN1CCN(C(=O)c2ccc(-c3ccc4c(C=O)c(O)ccc4c3)s2)CC1", "inactive"),
    ("CC(Cc1ccc(O)c(O)c1)C(C)Cc1ccc(O)c(O)c1 (configuration not stated)", "inactive"),
    ("COc1cc(N(C)C)cc(CN(C)CCc2ccc([N+](=O)[O-])cc2)c1O", "inactive"),
    ("O=C(CCl)c1ccccc1", "active"),
]
